Tested on: influenza A(H1N1)
Assay: Influenza A inhibition of viral CPE in MDCK cells
Type: cell-based, influenza A virus
Settings: Table II footnote i; read-out: Others EC50, against influenza A(H1N1)
pEC50: −log10 of the molar value.

molecule | pEC50
CC1Oc2c3c(c4c(-c5ccccc5)cc(=O)oc4c2C(O)C1C)OC(C)(C)C=C3 (single isomer, unassigned; (-)) [(−)-24] | 4.24

----------
Tested on: HCMV isolates Towne, AD169, E. Mann, Coffman, C9208
Assay: Anti-CMV plaque reduction assay against various laboratory and clinical isolates (Example 40)
Type: cell-based, human cytomegalovirus
Settings: isolate C9208
Method: On the date of assay, the drug is made up at twice the desired concentration in 2x MEM and then serially diluted 1:5 in 2x MEM using six concentrations of drug. The initial starting concentration is usually 200 gg/mL down to 0.06 μg/mL. […] At the end of 4-6hr incubation period, the stain is aspirated, and plaques counted using a stereomicroscope at lOx magnification. […]
pEC50: −log10 of the molar value.

compound | pEC50
CCCc1cc(=O)oc2c3c(c4c(c12)OC(C)(C)C=C4)OC(C)C(C)C3=O (racemic) [(±)-7a] | 5.59
CCCc1cc(=O)oc2c3c(c4c(c12)OC(C)(C)C=C4)OC(C)C(C)C3=O (racemic) [(±)-7] | 5.15
CCCc1cc(=O)oc2c3c(c4c(c12)OC(C)(C)C=C4)O[C@@H](C)[C@H](C)[C@@H]3O [(−)-calanolide B, (-)-Calanolide B] | 5.70
CCCc1cc(=O)oc2c3c(c4c(c12)OC(C)(C)CC4)OC(C)C(C)C3O (single isomer, unassigned; (-)) [(−)-23] | 5.52
